Recorded values, source the supplement of paper PMC10126150.

system: ATP; experiment: switch fluorescence ratio, 500 uM ATP over buffer (Cy3 cluster intensity, sum of 5 cycles each) (fold (ratio)); higher = stronger signal-on switching upon ATP binding; sequences stand for … in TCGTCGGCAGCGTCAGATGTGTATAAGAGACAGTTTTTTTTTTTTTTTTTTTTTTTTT…TC; conditions: aptamer strand: ATP DNA aptamer (quencher-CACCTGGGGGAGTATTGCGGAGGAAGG + anchor), 100 nM annealed; ATP concentration: 500 uM;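 note: ATP exposure 15 min at 22 °C before imaging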
Where switch fluorescence ratio equals or exceeds 1, the correct label is Criterion met; where it does not, the label is Criterion not met.

# count of solved cases: 2
Entry sequence | Class
CGGGCACGTG | Criterion not met
GGTATATTTT | Criterion met

Then this sequence:
Say whether AATCGGGGTT shows switch fluorescence ratio of 1 or more.
Criterion not met

* * *

system: ATP; test: switch fluorescence ratio, 500 uM ATP over buffer (Cy3 cluster intensity, sum of 5 cycles each) (fold (ratio)); higher = stronger signal-on switching upon ATP binding; sequences stand for … in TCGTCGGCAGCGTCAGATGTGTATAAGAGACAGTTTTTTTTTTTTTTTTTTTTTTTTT…TC; conditions: aptamer strand: ATP DNA aptamer (quencher-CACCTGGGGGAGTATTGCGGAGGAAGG + anchor), 100 nM annealed; ATP concentration: 500 uM;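 note: ATP exposure 15 min at 22 °C before imaging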
Where switch fluorescence ratio equals or exceeds 1, the correct label is Y; where it does not, the label is N.

Entry sequence | Class
AGTGTATAAA | Y
CGGTAGGATT | Y
TGGGTGCTGA | N
CATTAAGGAG | Y

Say whether GGGGTTCGTA shows switch fluorescence ratio of 1 or more.
N

Say whether ACGTCGTCGG shows switch fluorescence ratio of 1 or more.
N

Say whether CTTAAATGGG shows switch fluorescence ratio of 1 or more.
N

* * *

Listing of recorded switch fluorescence ratio by entry.
system: ATP; assay: switch fluorescence ratio, 500 uM ATP over buffer (Cy3 cluster intensity, sum of 5 cycles each) (fold (ratio)); higher = stronger signal-on switching upon ATP binding; sequences stand for … in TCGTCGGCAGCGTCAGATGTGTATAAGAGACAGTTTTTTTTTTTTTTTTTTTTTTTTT…TC; settings: aptamer strand: ATP DNA aptamer (quencher-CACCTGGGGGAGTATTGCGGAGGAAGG + anchor), 100 nM annealed; ATP concentration: 500 uM;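 note: ATP exposure 15 min at 22 °C before imaging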
Quick one: just the number, no unit, thanks!

Known switch fluorescence ratio results, listed for orientation:
Entry sequence | Measured number
TACCTTTTGG | 0.99
AGAGGCCGGG | 1

Given item AGAAAGCGCG , the value recorded as its switch fluorescence ratio is 1.05

Given item GGATTTCGTG , the value recorded as its switch fluorescence ratio is 0.986

Given item TCCAGGGCGG , the value recorded as its switch fluorescence ratio is 1.06

Given item AGGGAGGGAA , the value recorded as its switch fluorescence ratio is 1.01

Given item CTTCGTCTCG , the value recorded as its switch fluorescence ratio is 1.08

Given item TGGGGCGGAG , the value recorded as its switch fluorescence ratio is 0.979

* * *

system: ATP; test: switch fluorescence ratio, 500 uM ATP over buffer (Cy3 cluster intensity, sum of 5 cycles each) (fold (ratio)); higher = stronger signal-on switching upon ATP binding; sequences stand for … in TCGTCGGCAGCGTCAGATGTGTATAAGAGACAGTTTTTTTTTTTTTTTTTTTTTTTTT…TC; conditions: aptamer strand: ATP DNA aptamer (quencher-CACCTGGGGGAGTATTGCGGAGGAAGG + anchor), 100 nM annealed; ATP concentration: 500 uM;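 note: ATP exposure 15 min at 22 °C before imaging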
Property measured: switch fluorescence ratio

Entry sequence | switch fluorescence ratio
TGATTTCATT | 1.02

Readout switch fluorescence ratio for TTTTGTTCAG , test system ATP, was 0.985

Readout switch fluorescence ratio for TTAAAAGTAT , test system ATP, was 1.01

Readout switch fluorescence ratio for CGTTTCTTTT , test system ATP, was 0.997

Readout switch fluorescence ratio for GGGGTTAAAG , test system ATP, was 0.977

Readout switch fluorescence ratio for CTCGCCAGGG , test system ATP, was 1.41

Readout switch fluorescence ratio for TTAAGTAAGG , test system ATP, was 1.03

Readout switch fluorescence ratio for CCAATTGTGG , test system ATP, was 0.998

Readout switch fluorescence ratio for CGTGGCGCGG , test system ATP, was 0.994

Readout switch fluorescence ratio for AAGTTGAGGG , test system ATP, was 0.975
